These data points were gathered from PubChem BioAssay (NCI).

# growth inhibition per entry
- MEASUREMENT_PROTOCOL: NCI Yeast Anticancer Drug Screen. Data for the mlh1 rad18 strain (AID 175)
- TEST_CONDITIONS: S. cerevisiae mlh1 rad18 strain growth inhibition; at 50.0 µM; stronger effect = higher value
The panel holds about 79,000 compounds, 15% with a hit somewhere; the sample as a whole holds those more often.
QUANTITY_NAME: growth inhibition (%)

{"COMPOUND": "CCO[Si](CC)(OCC)OCC", "NUMERIC_VALUE": 31.8}
{"COMPOUND": "O=C(Nc1ccc(Cl)cc1)Nc1nnc2nc(C(C(=O)c3ccc(F)cc3)c3nc4nnc(NC(=O)Nc5ccc(Cl)cc5)n4[nH]c3=O)c(=O)[nH]n12", "NUMERIC_VALUE": 99.5}
{"COMPOUND": "N#C/C(=C1C=C/C(=N/O)C=C/1Cl)c1ccccc1", "NUMERIC_VALUE": 26.4}
{"COMPOUND": "O=c1oc2c/c(=C\\c3ccccc3)c(=O)c3cccc1c3-2", "NUMERIC_VALUE": 78.7}
{"COMPOUND": "CCOC(=O)C(Cc1ccc(O)c(C=O)c1)NC(C)=O (stereo not drawn)", "NUMERIC_VALUE": -1.55}
{"COMPOUND": "C(/C=C/CC=Nc1ccccc1)=Nc1ccccc1", "NUMERIC_VALUE": -29.7}
{"COMPOUND": "N#CSCC(=O)c1ccccc1", "NUMERIC_VALUE": 98.6}
{"COMPOUND": "[N-]=[N+]=NC1=C(C(=O)c2ccccc2)C(=O)c2cccc3cccc1c23", "NUMERIC_VALUE": 70}
{"COMPOUND": "Cc1ccc(CC2(C(=O)O)Cc3ccc(C)cc3C2)cc1 (stereo not drawn)", "NUMERIC_VALUE": 92.3}
{"COMPOUND": "CCCCCCC(=O)OCCN(CCOC(=O)CCCCCC)C(=O)C(C)OC(=O)CCCCCC (stereo not drawn)", "NUMERIC_VALUE": 97.6}
{"COMPOUND": "CC1=CC(O)(c2ccc(-c3ccccc3Cl)cc2)OC1=O (stereo not drawn)", "NUMERIC_VALUE": 96.3}
{"COMPOUND": "Nc1ccc(Cl)c2cccnc12", "NUMERIC_VALUE": 91.9}
{"COMPOUND": "Cc1cn(C2OC(CO)C(O)C(O)C2N)c(=O)[nH]c1=O (stereo not drawn)", "NUMERIC_VALUE": 92.5}
{"COMPOUND": "CC12C=C3CC(OC(=O)c4ccccc4)CCC3(O1)c1ccccc12 (stereo not drawn)", "NUMERIC_VALUE": 76}
{"COMPOUND": "O=[N+]([O-])c1ccc2c(c1)/C(=C/c1ccccc1O)c1ccccc1-2", "NUMERIC_VALUE": 90.2}
{"COMPOUND": "O=Cc1cc(-c2ccccc2)n(-c2ccccc2)c1-c1ccccc1", "NUMERIC_VALUE": 47.3}
{"COMPOUND": "COc1ccc(C(c2cc3c(cc2O)OCO3)N2CCOCC2)c(OC)c1OC (stereo not drawn)", "NUMERIC_VALUE": 83}
{"COMPOUND": "COc1ccc2c(c1)CC1c3c(ccc(OC)c3O)CC2N1C (stereo not drawn)", "NUMERIC_VALUE": 89.5}
{"COMPOUND": "C[Si](C)(C)CN1C(=O)c2ccccc2C1(O)c1ccccc1 (stereo not drawn)", "NUMERIC_VALUE": 71.2}
{"COMPOUND": "CCC1C(c2ccccc2O)c2cc3c(cc2OC1N1CCOCC1)OCO3 (stereo not drawn)", "NUMERIC_VALUE": 91.2}
{"COMPOUND": "Cc1ccnc(NS(=O)(=O)c2ccc(N=Cc3c4ccccc4nc4cc(Cl)ccc34)cc2)n1", "NUMERIC_VALUE": 99.3}
{"COMPOUND": "OC12C3C4CC5C(C4[C@@H]1Br)C2[C@@](O)(c1c(F)c(F)c(F)c(F)c1F)C53 (stereo partly drawn)", "NUMERIC_VALUE": 73.7}
{"COMPOUND": "O/N=C(/C[N+]12CN3CN(CN(C3)C1)C2)c1ccc(I)cc1", "NUMERIC_VALUE": 92}
